Each recorded value in this set is attributed to paper PMC3063406.

measured_on: T1, recombinant RIM1 PDZ-domain (rat RIM1 residues 596-704) (rat, UniProt Q9JIR4 596-704, ^15N-labeled (for the HSQC spectra))
T1 sequence (looked up): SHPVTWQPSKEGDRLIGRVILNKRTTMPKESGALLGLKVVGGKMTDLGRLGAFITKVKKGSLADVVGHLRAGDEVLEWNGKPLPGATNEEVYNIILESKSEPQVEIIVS
test_method_notes: ITC
property_name: pKd
Reminder that pKd means the negative base-10 logarithm of the concentration expressed in mol/L.

Q. I'd like to know its pKd. The binder in question is RHDAYSESEDDWC [peptide from the C-terminus of the P/Q-type Ca^2+-channel (residues RHDAYSESEDDWC)]
A. 4.99
